system-name: IRAK4 (Homo sapiens (Human))
Sequence (Q9NWZ3 whole entry, species assumed): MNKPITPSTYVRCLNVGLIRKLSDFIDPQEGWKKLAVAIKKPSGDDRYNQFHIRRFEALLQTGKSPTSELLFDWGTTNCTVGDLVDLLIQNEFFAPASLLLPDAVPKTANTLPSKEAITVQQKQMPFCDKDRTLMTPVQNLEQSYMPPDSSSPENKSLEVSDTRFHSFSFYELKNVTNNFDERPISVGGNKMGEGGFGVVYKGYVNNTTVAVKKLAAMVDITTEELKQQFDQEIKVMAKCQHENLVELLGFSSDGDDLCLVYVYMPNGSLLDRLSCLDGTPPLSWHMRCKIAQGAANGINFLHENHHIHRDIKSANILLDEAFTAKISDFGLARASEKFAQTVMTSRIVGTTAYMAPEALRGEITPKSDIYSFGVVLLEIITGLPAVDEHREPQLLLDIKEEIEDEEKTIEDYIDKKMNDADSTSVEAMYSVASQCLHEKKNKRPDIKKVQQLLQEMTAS
test-details: IRAK4 Inhibition Assay
Format: biochemical
readout-name: pIC50
Expect pIC50 as a plain number equal to -log10 of the molar concentration.

Give the reported pIC50 for this compound. CC(C)(O)[C@H](F)CNC(=O)c1cnc(Nc2nc(-c3cccnc3)cs2)cc1NC1CC1
7.63

###

system-name: IRAK4 (Homo sapiens (Human))
test-details: IRAK4 Inhibition Assay
Type: biochemical
study-conditions: ATP 500 μM; IRAK4 0.6 nM; 60 min at room temperature; read-out: IRAK4 IC50
Mark Met for IC50 under 3 nM, Not met if at or over.

Could you please tell me whether IC50 recorded for CC(C)(O)[C@H](F)CNC(=O)c1cnc(Nc2ncc(C#N)cc2Cl)cc1NC1CCCC1F (stereo partly shown) [Example 74] is less than 3 nM?
Met

Could you please tell me whether IC50 recorded for CC(C)(O)[C@H](F)CNC(=O)c1cnc(Nc2ncc(C#N)cc2Cl)cc1NC1CCC(F)C1 (stereo partly shown) [Example 157] is less than 3 nM?
Met

Could you please tell me whether IC50 recorded for CC(C)Nc1cc(Nc2ncc(F)cc2F)ncc1C(=O)NC[C@@H](F)C(C)(C)O [Example 80] is less than 3 nM?
Not met

Could you please tell me whether IC50 recorded for CC(C)Nc1cc(Nc2ncc(C#N)cc2F)ncc1C(=O)N[C@H]1CC[C@H](C(=O)NC(C)C)CC1 [Example 116] is less than 3 nM?
Met

Could you please tell me whether IC50 recorded for CS(=O)(=O)[C@H]1CC[C@H](NC(=O)c2cnc(Nc3ncc(C#N)cc3Cl)cc2NC2CC2)CC1 [Example 151] is less than 3 nM?
Not met

Could you please tell me whether IC50 recorded for CC(C)(O)[C@H](F)CNC(=O)c1cnc(Nc2ncc(C#N)cc2F)cc1NC1CCC(F)C1 (stereo partly shown) [Example 115] is less than 3 nM?
Not met

Could you please tell me whether IC50 recorded for CC(C)Nc1cc(Nc2ncc(C#N)cc2F)ncc1C(=O)NCCCOC(C)(C)C [Example 127] is less than 3 nM?
Not met

Could you please tell me whether IC50 recorded for CC(=O)N[C@H]1CC[C@H](NC(=O)c2cnc(Nc3ncc(C#N)cc3F)cc2NC(C)C)CC1 [Example 19] is less than 3 nM?
Not met

Could you please tell me whether IC50 recorded for CC(C)NC(=O)N[C@H](C)CCNC(=O)c1cnc(Nc2ncc(C#N)cc2F)cc1NC(C)C [Example 29] is less than 3 nM?
Met

Could you please tell me whether IC50 recorded for CCC(O)(CC)[C@H](F)CNC(=O)c1cnc(Nc2ncc(C#N)cn2)cc1NC(C)C [Example 117] is less than 3 nM?
Not met

Could you please tell me whether IC50 recorded for Cn1nnnc1-c1ccc(Nc2cc(Nc3ncc(C#N)cc3Cl)ncc2C(=O)NC[C@@H](F)C(C)(C)O)cc1 [Example 148] is less than 3 nM?
Not met

Could you please tell me whether IC50 recorded for CC(C)Nc1cc(Nc2ccc(=O)[nH]n2)ncc1C(=O)NC[C@@H](F)C(C)(C)O [Example 45] is less than 3 nM?
Not met

Could you please tell me whether IC50 recorded for CC(C)(O)[C@H](F)CNC(=O)c1cnc(Nc2ncc(C#N)cc2Cl)cc1NC1CCCC1O (stereo partly shown) [Example 76] is less than 3 nM?
Not met

Could you please tell me whether IC50 recorded for CC(C)CCNc1cc(Nc2ncc(C#N)cc2F)ncc1C(=O)NC[C@@H](F)C(C)(C)O [Example 141] is less than 3 nM?
Not met

Could you please tell me whether IC50 recorded for CC(C)Nc1cc(Nc2ccncn2)ncc1C(=O)NC[C@@H](F)C(C)(C)O [Example 20] is less than 3 nM?
Not met

Could you please tell me whether IC50 recorded for CCCNc1cc(Nc2ncc(C#N)cc2Cl)ncc1C(=O)NC[C@@H](F)C(C)(C)O [Example 138] is less than 3 nM?
Not met

Where do the numbers come from? From patent US9657009B2.
